Origin of measurements: PubChem BioAssay AID588689

# testTarget: Genome polyprotein (Dengue virus type 2 (strain 16681-PDK53)) (UniProt P29991)
# assayComment: flavivirus cap methylation enzyme inhibition – biochemical, confirmation dose response, primary screen (AID 588689)
# conditionDescription: Dengue-2 NS5 methyltransferase capping enzyme assay, at 25 µM, active compounds read high
Among all 340,000 compounds or so, about 1,000 (0.29%) were called active. Not all results are given here. Entries with a potency or affinity are not part of this list.
reportedMetric: inhibition (%)
Number in %, nothing else.

Query :: GET /values?readout=inhibition&item= O=[N+]([O-])c1c(Nc2ccccc2O)ccc2nonc12
Result :: 6.25

Query :: Thanks! And O=[N+]([O-])c1c(Nc2ccccc2O)cc(N2CCOCC2)c2nonc12 ?
Result :: 6.36

Query :: Thanks! And Cc1ccc(S(=O)(=O)NN2C(=O)/C(=C/c3ccc(F)cc3)SC2=S)cc1 ?
Result :: 9.54

Query :: Thanks! And O=C(NC1CC2CCCC(C1)N2CC(=O)N1CCCc2ccccc21)C1CCCCC1 (stereo not given) ?
Result :: -6.56

Query :: Thanks! And O=C(O)c1ccc(Nc2ccc([N+](=O)[O-])c3nonc23)cc1 ?
Result :: -1.54

Query :: Thanks! And O=C(/C=C/c1ccccc1)C1C(=O)c2ccccc2C1=O ?
Result :: -1.46

Query :: Thanks! And COc1ccc(/C=C(\C#N)C(=O)Nc2cc(S(=O)(=O)N3CCOCC3)ccc2N2CCCC2)cc1 ?
Result :: -4.53

Query :: Thanks! And O=C(O)c1ccc(Nc2ccc3nonc3c2[N+](=O)[O-])cc1 ?
Result :: -2.31

Query :: Thanks! And O=C1/C(=C/c2ccccn2)SC(=S)N1NS(=O)(=O)c1ccccc1 ?
Result :: 8.55

Query :: Thanks! And CCNc1cc(Nc2c(C)n(C)n(-c3ccccc3)c2=O)c([N+](=O)[O-])c2nonc12 ?
Result :: 6.99

----------
# testTarget: Genome polyprotein (Dengue virus type 2 (strain 16681-PDK53)) (UniProt P29991)
# assayComment: flavivirus cap methylation enzyme inhibition – biochemical, confirmation dose response, primary screen (AID 588689)
# conditionDescription: Dengue-2 NS5 methyltransferase capping enzyme assay, at 25 µM, active compounds read high
Hit rate of the full screen: of about 340,000 compounds, about 1,000 (0.29%) were called active. The list is a sample of the results. Entries with a potency or affinity are not part of this list.
Would you kindly list inhibition for each of these molecules?
Number in %, nothing else.

Query :: GET /values?readout=inhibition&item= COc1cc(/C=N/N=C2/NC(=O)C(CC(=O)O)S2)ccc1OCc1ccc(Cl)cc1 (stereo unspecified)
Result :: 16.7

Query :: Thanks! And CNC(=O)C1CC(=O)N(CCc2ccc(C)cc2)C1 (stereo unspecified) ?
Result :: -3.31

Query :: Thanks! And COc1cc(/C=N/NC(=O)CC2(C)OCCCO2)ccc1OCc1ccc(Cl)cc1Cl ?
Result :: -4.47

Query :: Thanks! And Cc1occc1C(=O)Nc1cnn(CCCC(=O)O)c1 ?
Result :: 0.32

Query :: Thanks! And COc1ccccc1N1C(=O)CC(N2CCN(c3ccc(F)cc3)CC2)C1=O (stereo unspecified) ?
Result :: -6.31

Query :: Thanks! And CCOc1cc(/C=N/NC(=O)CSc2nnc(C)s2)ccc1OCc1ccccc1Cl ?
Result :: 8.09
